target: SIRT1 (Homo sapiens, UniProt Q96EB6); experiment: SIRT1 deacetylation reaction, recombinant protein; type: biochemical; settings: deacetylase activity, SD always ≤10%
Sequence (Q96EB6 whole entry, species assumed): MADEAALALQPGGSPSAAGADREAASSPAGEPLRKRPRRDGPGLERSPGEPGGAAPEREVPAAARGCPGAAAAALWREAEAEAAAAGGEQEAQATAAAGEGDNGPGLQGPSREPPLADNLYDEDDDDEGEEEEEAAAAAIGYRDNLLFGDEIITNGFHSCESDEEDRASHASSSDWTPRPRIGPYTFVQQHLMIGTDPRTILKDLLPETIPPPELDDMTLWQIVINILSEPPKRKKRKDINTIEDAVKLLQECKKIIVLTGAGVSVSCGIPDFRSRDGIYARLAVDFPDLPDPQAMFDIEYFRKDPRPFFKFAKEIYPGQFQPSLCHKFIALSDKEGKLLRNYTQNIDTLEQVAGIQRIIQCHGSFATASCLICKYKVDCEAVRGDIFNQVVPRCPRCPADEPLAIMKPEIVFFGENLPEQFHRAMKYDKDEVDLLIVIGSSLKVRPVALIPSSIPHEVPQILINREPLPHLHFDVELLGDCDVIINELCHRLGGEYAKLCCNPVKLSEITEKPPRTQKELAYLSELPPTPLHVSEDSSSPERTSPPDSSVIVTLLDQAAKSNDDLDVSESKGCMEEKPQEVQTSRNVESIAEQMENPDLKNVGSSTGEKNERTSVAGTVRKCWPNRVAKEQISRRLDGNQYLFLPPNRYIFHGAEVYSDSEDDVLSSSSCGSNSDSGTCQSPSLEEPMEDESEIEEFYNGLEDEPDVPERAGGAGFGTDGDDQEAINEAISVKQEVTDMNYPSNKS
Outcome measure: inhibition at 150 µM (%)

{"Compound structure string": "CC(=O)c1cccc(NC(=O)Nc2nc(-c3ccc(Br)cc3)c(C)s2)c1", "Experimental system": "SIRT1 (Homo sapiens, UniProt Q96EB6)", "Outcome measure": "inhibition at 150 µM", "Observed": 86}
{"Compound structure string": "Cc1sc(NC(=O)NCc2ccccc2)nc1-c1ccc(Br)cc1", "Experimental system": "SIRT1 (Homo sapiens, UniProt Q96EB6)", "Outcome measure": "inhibition at 150 µM", "Observed": 99}
{"Compound structure string": "CSc1cccc(NC(=O)Nc2nc(-c3ccc(Br)cc3)c(C)s2)c1", "Experimental system": "SIRT1 (Homo sapiens, UniProt Q96EB6)", "Outcome measure": "inhibition at 150 µM", "Observed": 100}
{"Compound structure string": "CCOC(=O)c1sc(NC(=O)NCc2ccccc2)nc1-c1ccc(Br)cc1", "Experimental system": "SIRT1 (Homo sapiens, UniProt Q96EB6)", "Outcome measure": "inhibition at 150 µM", "Observed": 92}
{"Compound structure string": "COc1cccc(NC(=O)Nc2nc(-c3ccc(Br)cc3)c(C)s2)c1", "Experimental system": "SIRT1 (Homo sapiens, UniProt Q96EB6)", "Outcome measure": "inhibition at 150 µM", "Observed": 98}
{"Compound structure string": "CCOC(=O)c1sc(NC(=O)Nc2cccc(OC)c2)nc1-c1ccc(Br)cc1", "Experimental system": "SIRT1 (Homo sapiens, UniProt Q96EB6)", "Outcome measure": "inhibition at 150 µM", "Observed": 100}
